# ASSAY NOTES: photoluminescence quantum yield (fraction); solvent given as SMILES
# CONDITION PARAMETERS: in ClCCl
Assign y to entries whose photoluminescence quantum yield meets or exceeds 0.4; assign n to the rest.

Worked examples follow.
STRUCTURE SMILES STRING	DISCRETE LABEL
Cn1nc(-c2ccccc2)cc1-c1ccccc1	y
COc1ccc(C2=[N+]3C(=Nc4c(-c5ccccc5)c(Br)c(-c5ccc(OC)cc5)n4[B-]3(F)F)C(c3ccccc3)=C2Br)cc1	n
O=[N+]([O-])c1ccc([N+]2=Cc3ccc4c5c(ccc4c3O[B-]2(c2ccccc2)c2ccccc2)C=[N+](c2ccc([N+](=O)[O-])cc2)[B-](c2ccccc2)(c2ccccc2)O5)cc1	y
CC(C)(C)c1ccc2c(c1)sc1[n+]2[B-](F)(F)n2c(c3cccc4cccc2c43)=N1	y
Cc1cc(-c2ccc(-c3ccccc3)cc2)cc(C)[o+]1	y

Consider the additional compound presented here.
Given C[Si]1(C)O[Si](C)(C)c2cc3c(-c4ccccc4)c4cc([N+](=O)[O-])ccc4nc3cc21 , state whether its photoluminescence quantum yield is at least 0.4.
n
